Biological target: hHDAC6 (Homo sapiens, UniProt Q9UBN7)
Sequence (Q9UBN7 1-1215): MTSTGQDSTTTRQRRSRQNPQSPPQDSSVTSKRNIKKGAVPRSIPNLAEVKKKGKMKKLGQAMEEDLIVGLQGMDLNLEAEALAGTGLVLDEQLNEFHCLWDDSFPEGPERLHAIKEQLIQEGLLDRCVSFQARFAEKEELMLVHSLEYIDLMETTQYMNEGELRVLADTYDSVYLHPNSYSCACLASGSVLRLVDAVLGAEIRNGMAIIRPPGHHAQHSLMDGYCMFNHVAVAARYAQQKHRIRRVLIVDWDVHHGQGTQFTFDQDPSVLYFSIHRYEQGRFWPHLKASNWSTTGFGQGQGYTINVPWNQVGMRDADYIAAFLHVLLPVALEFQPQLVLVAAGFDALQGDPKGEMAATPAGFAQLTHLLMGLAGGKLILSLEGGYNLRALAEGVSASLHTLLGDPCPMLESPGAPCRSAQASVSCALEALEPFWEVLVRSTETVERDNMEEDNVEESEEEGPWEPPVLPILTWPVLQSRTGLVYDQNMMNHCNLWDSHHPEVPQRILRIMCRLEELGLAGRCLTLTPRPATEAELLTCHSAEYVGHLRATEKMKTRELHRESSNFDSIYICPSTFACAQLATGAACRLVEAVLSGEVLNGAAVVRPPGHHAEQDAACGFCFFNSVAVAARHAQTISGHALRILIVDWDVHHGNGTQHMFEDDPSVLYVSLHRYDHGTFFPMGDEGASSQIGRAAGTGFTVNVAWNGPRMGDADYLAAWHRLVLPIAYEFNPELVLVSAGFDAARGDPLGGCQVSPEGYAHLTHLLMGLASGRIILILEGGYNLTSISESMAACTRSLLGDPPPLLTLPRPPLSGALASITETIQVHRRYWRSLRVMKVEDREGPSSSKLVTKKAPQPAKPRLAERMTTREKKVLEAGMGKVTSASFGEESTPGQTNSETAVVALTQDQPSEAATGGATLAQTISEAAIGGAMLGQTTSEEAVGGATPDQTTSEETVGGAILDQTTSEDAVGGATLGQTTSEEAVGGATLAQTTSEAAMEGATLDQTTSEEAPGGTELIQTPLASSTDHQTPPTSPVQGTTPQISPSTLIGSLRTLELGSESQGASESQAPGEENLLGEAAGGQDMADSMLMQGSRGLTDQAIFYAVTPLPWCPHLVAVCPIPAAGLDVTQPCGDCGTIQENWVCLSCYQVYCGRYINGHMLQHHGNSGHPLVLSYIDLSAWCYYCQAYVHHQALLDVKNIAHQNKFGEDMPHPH
readoutType: pIC50
Give bare numbers, as −log10 of the molar value.

Task: Query: pIC50; subject: Cl.Cn1cc(CN2CCC3(CCN(c4ncc(C(=O)NO)cn4)C3)C2)c2cc(C#N)ccc21 (stereo not shown)
Output: 7.18

###

experiment: Liver microsome metabolism assay, rat; assay type: in vitro ADME; conditions: rat liver microsomes; read-out: T1/2 in liver microsomes
readoutType: half-life at 1 µM (min)
Give bare numbers, in min.

Task: Query: half-life at 1 µM; subject: Cl.Cn1cc(CN2CCC3(CCN(c4ncc(C(=O)NO)cn4)C3)C2)c2cc(C#N)ccc21 (stereo not shown) [JX21108]
Output: 12.7

###

test system: 293T cells; experiment: In vitro cytotoxicity analysis (CellTiter-Glo), 293T; settings: read-out: Cytotoxicity EC50, 293T; 72 h, CellTiter-Glo
pEC50: −log10 of the molar value.
# label = YES if pEC50 >= 6 else NO

Reference set, count: 4
Cl.O=C(NO)c1cnc(N2CCC3(CCN(Cc4cnc5ccccn45)C3)C2)nc1 (stereo not shown) [JX21122]	NO
Cl.Cn1cc(CNC2CCN(c3ncc(C(=O)NO)cn3)CC2)c2ccccc21 [JX21004]	YES
Cl.Cn1cc(CNC2CCC(Nc3ncc(C(=O)NO)cn3)CC2)c2ccccc21 (stereo not shown) [JX21022]	NO
Cl.O=C(NO)c1cnc(N2CCC3(CCN(CC4CCCC4)C3)C2)nc1 (stereo not shown) [JX21121]	NO

Task: Given Cl.Cn1cc(CN2CCC(CNc3ncc(C(=O)NO)cn3)CC2)c2ccccc21 [JX21008] , state whether its pEC50 is at least 6.
Output: YES

Task: Given O=C(NO)c1cnc(N2CCN(S(=O)(=O)c3ccc4ccccc4c3)CC2)nc1 [R306465, reference compound] , state whether its pEC50 is at least 6.
Output: NO
